Data credit: ChEMBL document CHEMBL1201862

test system: BJ; assay: BJ-TERT fibroblast viability loss – cell-based, RAS-independent, luminescence, dose response (AID 1933); type: functional; conditions: Homo sapiens
The source made the active and inactive calls. No stated cut-off is given here; in the data, actives have a measured EC50 and inactives only a lower limit.
Would you mind telling me the reported EC50 of each entry?

Look over these answered cases.
> print(dat)
                                   compound      reportedvalue
1  O=C(/C=C/c1ccc(F)cc1)NNC(=O)CCN1CCN(Cc2ccccc2)CC1   19.1 µM (active)
2  COC(=O)C1CC23C=CCN4CCC5(c6ccccc6NC15C2C)C43 (stereo not given)  0.612 µM (active)
3  O=C1CCCc2cc3c(cc21)CC1(C3)Cc2cc3c(cc2C1)C(=O)CCC3    9.1 µM (active)
4           Cc1cc(C)c2c(NC(=O)CCl)nn(C)c2n1   28.7 µM (active)

Item under review: CC(C)(C)c1cc([N+](=O)[O-])cc(C(C)(C)C)c1O . Reported EC50?
> 150 µM (not active)

====

molecular target: Protein RecA (Mycobacterium tuberculosis); assay: Fluorescence Cell-Free Homogeneous Dose Retest to Identify Inhibitors of RecA-Intein Splicing Activity. [Related pubchem assays (depositor defined):AID2097, AID2223, AID489010, AID492950]; assay type: functional
Active and inactive are the calls of the source. Cut-off read from the data, not from the text of the source: actives have a measured EC50 and inactives only a lower limit.
For each of the molecules below, state its EC50.

> print(dat)
                                   molecule        reportedvalue
1  COC(=O)c1ccccc1NC(=O)C(C)n1nc(C)c2c(C)n(-c3ccccc3)nc2c1=O (centres undefined)  > 380 µM (inactive)
2  CC1=NN(Cc2ccccc2)C(=O)C1C(c1ccccc1)C(C#N)C#N (centres undefined)     2.22 µM (active)
3  CC1CCCCC1NC(=O)NC(=O)CCl (centres undefined)     12.3 µM (active)

Next up:
I have this molecule here, CCN(CC)c1ccc2c(c1)CCCN2 , and I need its recorded EC50.
> 380 µM (inconclusive)

====

molecular target: Corticotropin-releasing factor receptor 2/Corticotropin-releasing factor-binding protein (Homo sapiens, UniProt P24387+Q13324); assay: activators of CRF receptor 2 with binding protein – uHTS hits, confirmation (AID 602473); format: functional; settings: read-out: EC50_Mean
Sequence (Q13324 whole entry): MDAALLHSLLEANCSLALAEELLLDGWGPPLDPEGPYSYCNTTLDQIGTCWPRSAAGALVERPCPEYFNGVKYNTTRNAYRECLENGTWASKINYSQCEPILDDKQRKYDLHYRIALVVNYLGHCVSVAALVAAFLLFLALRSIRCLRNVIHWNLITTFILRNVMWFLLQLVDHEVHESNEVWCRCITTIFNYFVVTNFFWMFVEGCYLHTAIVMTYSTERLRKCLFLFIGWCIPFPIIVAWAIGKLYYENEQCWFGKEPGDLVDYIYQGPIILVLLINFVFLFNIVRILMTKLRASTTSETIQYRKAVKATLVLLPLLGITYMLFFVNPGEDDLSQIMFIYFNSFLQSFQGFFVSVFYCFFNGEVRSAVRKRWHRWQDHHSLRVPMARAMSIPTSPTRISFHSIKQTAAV
Sequence (P24387 whole entry): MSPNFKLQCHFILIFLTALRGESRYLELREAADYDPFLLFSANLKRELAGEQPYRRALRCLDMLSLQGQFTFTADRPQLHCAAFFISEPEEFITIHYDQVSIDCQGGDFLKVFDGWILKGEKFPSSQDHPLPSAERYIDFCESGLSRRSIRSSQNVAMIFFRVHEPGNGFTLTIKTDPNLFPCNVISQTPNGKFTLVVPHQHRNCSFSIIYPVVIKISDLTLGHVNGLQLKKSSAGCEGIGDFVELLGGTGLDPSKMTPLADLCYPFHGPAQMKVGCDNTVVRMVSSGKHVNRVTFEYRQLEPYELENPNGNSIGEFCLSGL
Calls of active or inactive are those of the source. No stated cut-off is given here; in the data, actives have a measured EC50 and inactives only a lower limit.
Bench note: report the call from true (1) (active), false (0) (inactive)

Solved cases (5 shown):
> print(dat)
                                   molecule  classlabel
1  Cc1ccc(S(=O)(=O)NC(=Nc2ccc([N+](=O)[O-])cc2[N+](=O)[O-])c2ccccc2)cc1   false (0)
2  O=C(Nc1ccccc1SCC1CSc2nc3ccccc3c(=O)n21)c1ccccc1 (stereo unspecified)   false (0)
3   Cc1ccccc1OCC(=O)OCC(=O)c1c[nH]c2ccccc12   false (0)
4  CCOc1ccc(N2C(=O)NC(=O)/C(=C/Nc3ccc(N(CC)CC)cc3)C2=O)cc1    true (1)
5  COc1ccccc1C1C2=C(N=c3s/c(=C/c4cccc(OCC(=O)O)c4)c(=O)n31)c1ccccc1CC2 (stereo unspecified)   false (0)

Record request — test call for COc1cccc(C2CCCN2Cc2nc(-c3cnccn3)no2)c1 (stereo unspecified)
false (0)

Would you mind telling me which call this test gave O=C(OCC(=O)N1N=C(c2ccc(Cl)cc2)CC1c1ccco1)c1ccco1 (stereo unspecified) ?
false (0)

Each molecule tested received a call. Report the one for CC(C)(C)n1nnnc1C(c1ccc(Cl)cc1)N(Cc1cccnc1)Cc1ccco1 (stereo unspecified) .
false (0)

Outcome? O=C(CCl)Nc1nccs1
false (0)

Test call for this molecule, please: CCOC(=O)C(NC(=O)CC(C)C)(Nc1sc(C)c(CC)c1C#N)C(F)(F)F (stereo unspecified)
false (0)

What outcome does the record of this test show for CCCCCCc1cc2cc(C(=O)NCc3ccccc3)c(=N)oc2cc1O ?
true (1)

// return assay outcome for COc1cc(CNc2ccccc2SC)ccc1O
false (0)

What outcome does the record of this test show for CCC1CCCCN1Cc1ccc(OC)c(C)c1 (stereo unspecified) ?
true (1)

How did this test come out for Cc1cc(C)cc(N2C(=O)CSC2c2cccs2)c1 (stereo unspecified) ?
false (0)
